CONDITION: buffer; pH 7.4; 200.0 µM
READOUT: solubility kinetic

                                    compound  experimental_result
 0  C=C(C)CN(CC)Cc1c(C(=O)N(C)CCCC)nc2ccccn12         > 51.4 µg/mL
 1       O=C(NCCc1ccc(Cl)cc1)c1ccc(=O)[nH]c1           38.1 µg/mL
 2  Cc1ccccc1Cn1c(-c2ccc(=O)[nH]c2)nc2ccccc21           27.8 µg/mL
 3  Cc1cccc(S(=O)(=O)N2CCn3cccc3C2C)c1 (configuration not stated)         > 43.6 µg/mL
 4  COc1ccc(NC(=O)C(Br)C(C)C)cc1 (configuration not stated)           40.7 µg/mL
 5  CCCOc1ccc(NC(=O)CC2Nc3ccccc3NC2=O)cc1 (configuration not stated)            2.7 µg/mL
 6   COc1ccc(C(=O)CC(=O)C(=O)Nc2ccccc2OC)cc1           16.2 µg/mL
 7              Brc1ccsc1-c1csc(-c2ccncc2)n1            2.7 µg/mL
 8    Cc1ccc(S(=O)(=O)CCC(=O)NCCc2ccccc2)cc1         > 49.7 µg/mL
 9  CCCCn1cc2c(c1-c1cccc(C)c1)c(=O)n(C)c(=O)n2C             14 µg/mL
10  O=C(COC(=O)c1cccc(S(=O)(=O)NCc2ccccc2)c1)NC1CC1           15.2 µg/mL
11           Cn1c(CNC(=O)OC(C)(C)C)n[nH]c1=S         > 36.6 µg/mL
